Molecular target: T1, Human ANGPTL4(26-406)-FLAG-His6-Avi (human, UniProt Q9BY76 24-406, biotin on the C-terminal Avi tag in the biotinylated preparations (immobilised form in SET, ELISA and Octet))
T1 construct: also called full-length human ANGPTL4; hANGPTL4
T1 sequence: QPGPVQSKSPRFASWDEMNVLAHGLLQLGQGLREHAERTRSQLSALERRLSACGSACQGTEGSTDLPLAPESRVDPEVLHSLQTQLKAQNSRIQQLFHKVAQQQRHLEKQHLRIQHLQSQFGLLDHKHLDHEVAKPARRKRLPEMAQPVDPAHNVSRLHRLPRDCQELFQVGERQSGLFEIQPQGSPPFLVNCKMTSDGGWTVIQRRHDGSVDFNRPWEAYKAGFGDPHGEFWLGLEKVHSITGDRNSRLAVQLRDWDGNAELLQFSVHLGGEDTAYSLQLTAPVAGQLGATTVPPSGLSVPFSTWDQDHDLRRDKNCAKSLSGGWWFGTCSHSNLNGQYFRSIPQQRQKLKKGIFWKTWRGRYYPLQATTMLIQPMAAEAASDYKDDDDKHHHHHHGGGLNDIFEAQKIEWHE
Assay: SET assay
Procedure: SET assays were performed as follows. […] The equilibrium binding reactions (15 μL per well) were applied to the MSD plate with immobilized ANGPTL4 and incubated for 20 min at 22° C. The unbound material was removed by washing the plate 3 times with wash buffer, and the captured antibody was detected by adding Sulfo-tagged goat anti-human IgG (Meso Scale Discovery). After washing MSD read buffer T was added and the plate was developed using a Sector Imager 6000 (Meso Scale Discovery). […]
reported endpoint: Kd (pM)
Hi! Could you send only the number? It should be in pM, unit omitted.

binder: MOR023415 (antibody, V domains shown, built on parent Fab MOR021798 with residues 48-66 of the VH replaced) VH: QVQLLESGGGLVQPGGSLRLSCAASGFTFSDYALHWVRQAPGKGLEWVSRITYTGFYTFYADSVKGRFTISRDNSKNTLYLQMNSLRAEDTAVYYCAREHYYSSPMGGVAVDNWGQGTLVTVSS VL: DIVLTQPPSVSGAPGQRVTISCSGSSSNIGYNTVSWYQQLPGTAPKLLIYSNNIRPSGVPDRFSGSKSGTSASLAITGLQAEDEADYYCSSWDFLIKSLVFGGGTKLTVL
Kd / pM: 1
--
binder: MOR023417 (antibody, V domains shown, as MOR023415: built on parent Fab MOR021798, limits derived) VH: QVQLLESGGGLVQPGGSLRLSCAASGFTFSDYALHWVRQAPGKGLEWVSRITYTGMWTEYADSVKGRFTISRDNSKNTLYLQMNSLRAEDTAVYYCAREHYYSSPMGGVAVDNWGQGTLVTVSS VL: DIVLTQPPSVSGAPGQRVTISCSGSSSNIGYNTVSWYQQLPGTAPKLLIYSNNIRPSGVPDRFSGSKSGTSASLAITGLQAEDEADYYCSSWDFLIKSLVFGGGTKLTVL
Kd / pM: 6
--
binder: MOR023420 (antibody, V domains shown, built on parent Fab MOR021798 with LCDR3 residues 90-99 of the VL replaced (last LCDR3 residue V kept)) VH: QVQLLESGGGLVQPGGSLRLSCAASGFTFSDYALHWVRQAPGKGLEWVSRISYMGSSTYYADSVKGRFTISRDNSKNTLYLQMNSLRAEDTAVYYCAREHYYSSPMGGVAVDNWGQGTLVTVSS VL: DIVLTQPPSVSGAPGQRVTISCSGSSSNIGYNTVSWYQQLPGTAPKLLIYSNNIRPSGVPDRFSGSKSGTSASLAITGLQAEDEADYYCGSFDWVTSHVVFGGGTKLTVL
Kd / pM: 1

Give me measured Kd, please, for this binder: MOR023406 (antibody, human IgG1, kappa, V domains shown, as MOR023400: built on MOR022771, limits derived) VH: EVQLLESGGGLVQPGGSLRLSCAASGFTFSSYWMHWVRQAPGKGLEWVSYIPYMGPGKFYADSVKGRFTISRDNSKNTLYLQMNSLRAEDTAVYYCARDSYIYDLHWGFDNWGQGTLVTVSS VL: DIQMTQSPSSLSASVGDRVTITCRASQDISSYLNWYQQKPGKAPKLLIYAASRLQSGVPSRFSGSGSGTDFTLTISSLQPEDFATYYCQQSYTHPYTFGQGTKVEIKR
3

The measurements presented in this section are drawn from patent US20160108110A1.
